- System: EPHA7;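 further: KINOMEscan kinase panel screen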
- Study conditions: concentration: 1 μM, replicates: in singlicate; n = 1
Assay metric: %Inh (%)

* N#Cc1cnc2cc(-c3cnc(CNCCN4CCOCC4)s3)ccc2c1Nc1ccc(Oc2ccccc2)cc1 | 0
* CCn1c(-c2nonc2N)nc2c(-c3ccccc3)ncc(OCCCN)c21.O=C(O)C(F)(F)F.O=C(O)C(F)(F)F | 6
* Cl.O=C(Nc1ccc(Oc2ccc3[nH]c(NC(=O)c4ccco4)nc3c2)cc1)Nc1cc(C(F)(F)F)ccc1F | 86
* CN(c1ccc(NC(=O)Nc2cccc(Cl)c2)cc1)c1ccnc(N)n1.Cl | 40
* COc1cc(Nc2nccc(N3CCC(NC(=O)Nc4ccc5c(c4)OCO5)C3)n2)cc(OC)c1OC (stereo not shown) | 0
* Cc1ccccc1CC(=O)N1CCc2cc(-c3cn(C)c4ncnc(N)c34)ccc21 | 0
* CC(C)(C)c1ccc(C(=O)Nc2cn3cc(-n4ccnc4)ccc3n2)cc1 | 0

Values compiled from paper PMC5540273.
